# System Tested: T1, 9A
# T1 construct: also called HLA-A2 / point-mutant NY-ESO peptide 9A complex on T2 cells
# Assay Method Text: flow cytometry on peptide-pulsed T2 cells, scFv 100 nM
Field: standardized gMFI. Provide a value for each of the binders that follow.
Give only the figure.

Problem: I am curious: what standardized gMFI value has been reported for NYA-2143 (scFv) scFv: GEVQLVESGGGVVQPGRSLTPSCSASGFSIRSYDIHWVRLAPGKGLEWVATISYDGSQKYFADSVKGRFTIFRDESENMVYLQMSGLRVEDTAVYHCARGSSGHYEAFDIWGQGTMVTVSSGGGGSGGGGSGGGGSQSVLTQPPSVSAAPGQKVTISCSGSSSNIGNWYVSWYQRLPGTAPKLLIYDNNKRPSGIPDRFSGSKSGTSATLGITGLQTGDEADYYCGTWDSSLSAPWVFGGGTKVTVLGAAAGAGGDYKDDDDKGAAAHHHHHH ?
Solution: 14.5

Problem: Next binder: NYA-1143 (scFv) scFv: GEVQLVESGGGVVQPGRSLTPSCSASGFSIRSYDIHWVRLAPGKGLEWVATISYDGSQKYFADSVKGRFTIFRDESENMVYLQMSGLRVEDTAVYHCARGSSGHYEAFDIWGQGTMVTVSSGGGGSGGGGSGGGGSQSVLTQPPSVSAAPGQKVTISCSGSSSNIGNWYVSWYQQLPGTAPKLLIYDNNKRPSGIPDRFSGSKSGTSATLGITGLQTGDEADYYCGTWDSSLSAPWVFGGGTKVTVLGAAAGAGGDYKDDDDKGAAAHHHHHH
Solution: 15.1

Problem: Next binder: NYA-2023 (scFv) scFv: GEVQLVESGGGVVQPGRSLTPSCSASGFSIRSYDIHWVRQAPGKGLEWVATISYDGSQKYFADSVKGRFTIFRDESENMVYLQMSGLRVEDTAVYHCARGSSGHYEAFDIWGQGTMVTVSSGGGGSGGGGSGGGGSQSVLTQPPSVSAAPGQKVTISCSGSSSNIGNWYVSWYQQLPGTAPKLLIYDNNKRPSGIPDRFSGSKSGTSATLGITGLQTGDEADYYCGTWDSSLSAPWVFGGGTKVTVLGAAAGAGGDYKDDDDKGAAAHHHHHH
Solution: 10.8

Problem: Next binder: NYA-2045 (scFv, also called NYA-2045 tag adduct) scFv: GEVQLVESGGGLVQPGGSLRLSCAASGFSIRSYDIHWVRLAPGKGLEWVATISYDGSQKYYADSVKGRFTISRDESKNTLYLQMNSLRAEDTAVYHCARGSSGHYEAFDIWGQGTLVTVSSGGGGSGGGGSGGGGSQSVLTQPPSASGTPGQRVTISCSGSSSNIGNWYVSWYQQLPGTAPKLLIYDNNKRPSGVPDRFSGSKSGTSASLAISGLQSEDEADYYCGTWDSSLSAPWVFGGGTKLTVLGAAAGAGGDYKDDDDKGAAAHHHHHH
Solution: 9.98

Problem: Next binder: NYC-0003 (scFv, not shown: small tags and cut ends, also called 3M4E5 scFv; NYC-0003 tag adduct) scFv: EVQLLESGGGLVQPGGSLRLSCAASGFTFSTYQMSWVRQAPGKGLEWVSGIVSSGGSTAYADSVKGRFTISRDNSKNTLYLQMNSLRAEDTAVYYCAGELLPYYGMDVWGQGTTVTVSSGGGGSGGGGSGGGGSQSELTQPRSVSGSPGQSVTISCTGTSRDVGGYNYVSWYQQHPGKAPKLIIHDVIERSSGVPDRFSGSKSGNTASLTISGLQAEDEADYYCWSFAGSYYVFGTGTDVTVL
Solution: 4.77
